Recorded PBM binding z-score, one value per entry.
- System: RARg homodimer (NR concentration 270 nM)
- Assay info: PBM binding z-score (relative to random genomic background probes); higher = stronger binding; sequences stand for … in GC…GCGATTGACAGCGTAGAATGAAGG
Please state the value as a number alone, without comment.

A selection of reference data follows.
> print(dat)
               macromolecule.sequence     measurement.type  reported
1  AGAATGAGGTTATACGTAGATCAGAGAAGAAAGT  PBM binding z-score      1.42
2  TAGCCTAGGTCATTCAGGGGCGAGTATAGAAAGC  PBM binding z-score      3.93
3  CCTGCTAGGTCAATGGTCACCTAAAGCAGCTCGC  PBM binding z-score      4.05
4  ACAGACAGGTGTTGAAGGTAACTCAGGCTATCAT  PBM binding z-score     0.114
5  GCTATTAGTTGAAAGGACAACCGAATGATTCTCG  PBM binding z-score       1.2

Input line: Quick one: PBM binding z-score of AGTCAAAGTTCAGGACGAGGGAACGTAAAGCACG ?
Output line: 4.74
